Species: Homo sapiens
method: To identify inhibition of the IFN signalling (Jak-Stat) pathway via expression of an eGFP reporter gene under the control of an IFN-stimulated response element (ISRE) containing MxA promoter.
Assay type: functional
Design: scale not given: direction of the effect not stated beside the values
assayContext: 30 µM
readoutLabel: Percent Effect (%)
Give bare numbers, in %.

compound: Cc1nc[nH]c1-c1nc2cc(S(=O)(=O)N3CCCC3)ccc2n1C
unitsOfMeasure: %
Percent Effect: 24.3

Each of the following entries comes with a recorded value; kindly state Percent Effect for each.
1. CCc1nc(CN2CCCN(C(=O)C(C)COC)CC2)cs1 (stereo not drawn)
2. O=C(C1CCC1)N1CCN(c2snc3ccccc23)CC1

10.8
25.3

// each compound listed below needs its Percent Effect
1. CCOCCOc1ccccc1C(=O)N1CCCC(c2ncc[nH]2)C1 (stereo not drawn)
2. COc1ccccc1C1(C(=O)NCCN2CCOCC2)CCOCC1
3. CCc1nc2n(n1)CC(NCc1nc(C)ccc1O)CC2 (stereo not drawn)
4. COCCN1C(=O)C[C@H]2[C@H]1CCN2Cc1ccc(OC)cc1
5. NC(=O)C1CN(C(=O)Nc2ccccc2SC(F)(F)F)CCO1 (stereo not drawn)

6.64
-15.9
-1.01
17.5
9.57

###

testedOn: Protein translocase subunit SecA (Escherichia coli (strain K12))
method: Assay to Identify E. coli SecA ATPase Inhibitors
Type: functional
Design: scale not given: direction of the effect not stated beside the values
assayContext: 30 µM
Results with a measured potency or affinity are listed apart.
For each record, write down the corresponding Percent Effect.
Numbers only, in %.

Here's what some known entries look like.
compound: Cc1ccc(F)c(C(=O)N2CCN(S(C)(=O)=O)[C@@H](C)C2)c1
readoutLabel: Percent Effect
unitsOfMeasure: %
readoutValue: -1.54

compound: COCCCn1ccnc1-c1cnc(OC)nc1
readoutLabel: Percent Effect
unitsOfMeasure: %
readoutValue: -0.0522

compound: N#Cc1ccc(CNCC(C(=O)N2CCOCC2)c2ccccc2)cc1 (stereo not drawn)
readoutLabel: Percent Effect
unitsOfMeasure: %
readoutValue: -2.65

compound: O=C(NCCc1ccccc1)C1CCC(Cn2cnnn2)CC1 (stereo not drawn)
readoutLabel: Percent Effect
unitsOfMeasure: %
readoutValue: -0.876

Dear colleague, could you send me Percent Effect for each of the items below? Thanks.
1. COCCNC(=O)C[C@@H]1COC[C@H]2CN(C(=O)c3cnccn3)C[C@@H]12
2. N#CCCN(C(=O)CN1CCCC1c1ccsc1)c1ccccc1F (stereo not drawn)

1. -0.696
2. -3.56

###

Species: Homo sapiens
method: To identify inhibition of the IFN signalling (Jak-Stat) pathway via expression of an eGFP reporter gene under the control of an IFN-stimulated response element (ISRE) containing MxA promoter.
Format: functional
Design: scale not given: direction of the effect not stated beside the values
assayContext: 30 µM
readoutLabel: Percent Effect (%)
Answers are plain numbers, in %.

For every listed record, write down its Percent Effect.
1. Cc1ccccc1CN1CCN(CC(=O)Nc2cccnc2)CC1
2. Cc1nnc(N2C[C@H](C(=O)NCC3CC3)[C@@H]3CCO[C@@H]3C2)s1
3. CN(C)C(=O)N1CCC2(CCCN(Cc3cnn(C)c3)C2)C1 (stereo not given)

12.5
7.74
-3.73

I have 3 compounds here; please give me Percent Effect for each one.
1. N#Cc1ccc(OCCNc2cccc(C(=O)N3CCOCC3)c2)cc1
2. CCn1c(N)nc2cc(C(=O)NCCc3sccc3C)cnc21
3. O=C(CCN1CCCC1c1cccs1)N1CCc2sccc2C1 (stereo not given)

1: 16.8; 2: 8.68; 3: 5.67

Below are 4 compounds. Give each one its Percent Effect.
1. CCN1CCN(C2CCN(Cc3noc(C)n3)CC2)C1=O
2. CC(C)c1nnc2ccc(N3CCC(C(=O)Nc4nccs4)CC3)nn12
3. Cc1nc(C2CCCN(C(=O)Cn3ccccc3=O)C2)no1 (stereo not given)
4. c1ccc(-c2noc(CNC3CCc4ncnn4C3)n2)nc1 (stereo not given)

1. -0.161
2. 82.9
3. 8.71
4. 6.37

Value sought for every listed compound: Percent Effect.
1. Cc1noc(C(C)C)c1C(=O)NS(=O)(=O)c1ccc2c(c1)OCCCO2
2. Cc1nn(C)c(Cl)c1C1CCCN1CC(=O)NCc1ccccn1 (stereo not given)
3. COc1cccc(OCc2cc(C(=O)NC[C@H]3CCCN3)n[nH]2)c1
4. OC(COc1ccccc1)CN1CCC(c2ccn[nH]2)CC1 (stereo not given)
5. COCCOc1ccc(NC(=O)C2CCC2)cn1
6. CCN1CC(C(=O)NC(C)(C)CNC(=O)OC(C)(C)C)CC1=O (stereo not given)

1: 24.3; 2: 22.5; 3: -6.81; 4: -21.8; 5: -2.54; 6: -16.6

###

testedOn: AMP-activated protein kinase, AMPK (Homo sapiens) (UniProt P54646+O43741+P54619+Q9UGJ0+Q9Y478+Q13131+Q9UGI9)
method: AMP-dependent Kinase enzyme assay. An in vitro enzyme assay that detects ADP turnover that is directly proportional to AMPK activity. This uses naive AMPK that is activated during the assay with MK-8722
Type: functional
Parameters: scale not given: direction of the effect not stated beside the values
assayContext: 30 µM
readoutLabel: Percent Effect (%)
Answers are plain numbers, in %.

Recorded results for 3 molecules are shown here.
molecule: c1cnnc(N2CCCC2CNc2ncnc3ccccc23)c1 (stereo unspecified)
readoutLabel: Percent Effect
unitsOfMeasure: %
readoutValue: 9.15
--
molecule: Cn1cnc2c1CCN(Cc1nc(Cc3ccccc3)no1)C2
readoutLabel: Percent Effect
unitsOfMeasure: %
readoutValue: -7.72
--
molecule: Cc1nc(C2(NCC(=O)NCCc3cccs3)CCCC2)no1
readoutLabel: Percent Effect
unitsOfMeasure: %
readoutValue: -3.1

Could you report Percent Effect for every entry in the following list?
1. CSc1ccc(CNC(c2ccccc2)c2nccn2C)cc1 (stereo unspecified)
2. Cc1ccc(C(=O)N2CCSCC2)cc1NC(=O)NCCO
3. Cc1cnc2n(c1=O)C(CC(=O)NCc1cc(-c3cccs3)on1)CS2 (stereo unspecified)
4. Cc1cc(CN(C)C(=O)c2cc3c([nH]c2=O)CCCC3=O)no1
5. CCOC1CCN(C(=O)c2c(Cl)c3ccccc3n2C)CC1
6. Cc1nc(CNCc2c(C)nn(C)c2N2CCOCC2)cs1
7. CC1CCN(CCCNS(=O)(=O)c2cccc(F)c2)CC1
8. CC(=O)N(Cc1noc(C2CC2)n1)C1CCN(Cc2cccnc2)C1 (stereo unspecified)

-4
6.7
11.4
-1.63
-0.042
-0.222
0.601
-6.59

###

testedOn: Tyrosyl-tRNA synthetase, putative (Trypanosoma cruzi (strain CL Brener)) (UniProt Q4DSP6)
Sequence (whole entry): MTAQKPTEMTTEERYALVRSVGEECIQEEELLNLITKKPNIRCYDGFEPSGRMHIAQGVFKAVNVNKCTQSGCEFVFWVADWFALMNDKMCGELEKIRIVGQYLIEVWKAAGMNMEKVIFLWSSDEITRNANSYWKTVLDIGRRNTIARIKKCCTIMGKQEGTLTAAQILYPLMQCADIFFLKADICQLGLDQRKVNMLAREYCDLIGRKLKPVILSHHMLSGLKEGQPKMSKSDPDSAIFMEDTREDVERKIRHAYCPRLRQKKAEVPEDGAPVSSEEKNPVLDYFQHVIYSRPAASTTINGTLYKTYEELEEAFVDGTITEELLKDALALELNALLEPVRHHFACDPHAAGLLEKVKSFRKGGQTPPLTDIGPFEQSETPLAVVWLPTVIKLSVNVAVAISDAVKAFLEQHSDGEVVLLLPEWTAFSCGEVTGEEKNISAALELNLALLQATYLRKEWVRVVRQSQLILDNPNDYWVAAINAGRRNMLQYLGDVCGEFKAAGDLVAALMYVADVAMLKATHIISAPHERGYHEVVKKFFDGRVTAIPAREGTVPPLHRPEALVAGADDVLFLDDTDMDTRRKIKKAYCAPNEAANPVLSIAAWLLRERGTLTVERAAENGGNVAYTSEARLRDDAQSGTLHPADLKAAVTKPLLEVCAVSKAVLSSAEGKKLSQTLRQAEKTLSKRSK
method: Trypanosoma cruzi tyrosyl tRNA synthetase (TcYRS) _High Tyrosine SOP; further: in the data most compounds retested in dose-response had high values
Type: functional
Design: scale not given: direction of the effect not stated beside the values
assayContext: 30 µM
Hi there, I'd appreciate the recorded Percent Effect for every entry that follows.
One number for each entry, in %.

Use the examples below as a reference point.
molecule: CC(C)(C)C(=O)NCCC(=O)NC(C)(C)c1ccc2c(c1)OCCO2
readoutValue: 2.15

molecule: Cc1ncsc1CN1C[C@@H](OCC2CC2)[C@H]2OCCC[C@H]21
readoutValue: 5.38

molecule: O=C(Cc1ccc(F)cc1)N1CCCCC1c1ccn2ccnc2n1 (centres undefined)
readoutValue: 0

molecule: Cc1oc(C)c(C(=O)NCc2ccccn2)c1C
readoutValue: 1.47

molecule: O=C(c1ccc(Br)s1)N1CCN(Cc2ccc(OC(F)(F)F)cc2)CC1
readoutValue: 1.07

For each of the items listed, what is its Percent Effect?
1. Cc1nc(CN2CCOC(c3nc(C(C)C)n[nH]3)C2)oc1C (centres undefined)
2. Cc1ccc(CC(=O)N(C)CC2(O)CCN(c3ccccn3)C2)s1 (centres undefined)
3. Cc1noc(C2CCN(C(=O)c3c(C)noc3C)CC2)n1

1. 3.45
2. 4.3
3. 6.45

Given the molecule COc1ccc(C(=O)N2CCCCC2Cn2cccn2)c(F)c1 (centres undefined) , what is its reported Percent Effect? 6.8
